ASSAY EXPLANATION: Metabolic stability in rat hepatocytes
Assay type: in vitro ADME
ASSAY CONDITIONS: 1 μM compound, male rat hepatocytes
MEASURED METRIC: Rat Hepatocyte CLint (μL/min/10^6 cells)

- COMPOUND: "COC[C@H](C(=O)Nc1cccc2c(-c3nc(Nc4ccnc(CCC(=O)OC)c4)ncc3F)c[nH]c12)N1CCN(C)CC1 [Example 15]"
  TEST RESULT: 68.0
- COMPOUND: "COC[C@H](C(=O)Nc1cccc2c(-c3nc(Nc4ccc(NC(C)=O)nc4)ncc3F)c[nH]c12)N1CCN(C)CC1 [Example 48]"
  TEST RESULT: 1.6
- COMPOUND: "COC[C@H](C(=O)Nc1cccc2c(-c3nc(Nc4ccc5c(c4)C(=O)OCC5)ncc3F)c[nH]c12)N1CCN(C)CC1 [Example 64]"
  TEST RESULT: 4.0
- COMPOUND: "COC[C@H](C(=O)Nc1cccc2c(-c3nc(Nc4ccc5c(c4)NC(=O)C5)ncc3F)c[nH]c12)N1CCN(C)CC1 [Example 37]"
  TEST RESULT: 6.3

a: COC[C@H](C(=O)Nc1cccc2c(-c3nc(Nc4cnn(C5CCOC5)c4)ncc3F)c[nH]c12)N1CCN(C)CC1 (single isomer, unassigned; isomer 2) [Example 33]
b: COC[C@H](C(=O)Nc1cccc2c(-c3nc(Nc4ccc(CCO)nc4)ncc3F)c[nH]c12)N1CCN(C)CC1 [Example 60]
Query: Thinking about recorded Rat Hepatocyte CLint values, which is higher, a or b ? Label of pick, please.
Response: a
(a: 6.8 μL/min/10^6 cells, b: 4.6 μL/min/10^6 cells)

---

TEST TARGET: JAK1 (Homo sapiens, UniProt P23458)
Sequence (P23458 whole entry): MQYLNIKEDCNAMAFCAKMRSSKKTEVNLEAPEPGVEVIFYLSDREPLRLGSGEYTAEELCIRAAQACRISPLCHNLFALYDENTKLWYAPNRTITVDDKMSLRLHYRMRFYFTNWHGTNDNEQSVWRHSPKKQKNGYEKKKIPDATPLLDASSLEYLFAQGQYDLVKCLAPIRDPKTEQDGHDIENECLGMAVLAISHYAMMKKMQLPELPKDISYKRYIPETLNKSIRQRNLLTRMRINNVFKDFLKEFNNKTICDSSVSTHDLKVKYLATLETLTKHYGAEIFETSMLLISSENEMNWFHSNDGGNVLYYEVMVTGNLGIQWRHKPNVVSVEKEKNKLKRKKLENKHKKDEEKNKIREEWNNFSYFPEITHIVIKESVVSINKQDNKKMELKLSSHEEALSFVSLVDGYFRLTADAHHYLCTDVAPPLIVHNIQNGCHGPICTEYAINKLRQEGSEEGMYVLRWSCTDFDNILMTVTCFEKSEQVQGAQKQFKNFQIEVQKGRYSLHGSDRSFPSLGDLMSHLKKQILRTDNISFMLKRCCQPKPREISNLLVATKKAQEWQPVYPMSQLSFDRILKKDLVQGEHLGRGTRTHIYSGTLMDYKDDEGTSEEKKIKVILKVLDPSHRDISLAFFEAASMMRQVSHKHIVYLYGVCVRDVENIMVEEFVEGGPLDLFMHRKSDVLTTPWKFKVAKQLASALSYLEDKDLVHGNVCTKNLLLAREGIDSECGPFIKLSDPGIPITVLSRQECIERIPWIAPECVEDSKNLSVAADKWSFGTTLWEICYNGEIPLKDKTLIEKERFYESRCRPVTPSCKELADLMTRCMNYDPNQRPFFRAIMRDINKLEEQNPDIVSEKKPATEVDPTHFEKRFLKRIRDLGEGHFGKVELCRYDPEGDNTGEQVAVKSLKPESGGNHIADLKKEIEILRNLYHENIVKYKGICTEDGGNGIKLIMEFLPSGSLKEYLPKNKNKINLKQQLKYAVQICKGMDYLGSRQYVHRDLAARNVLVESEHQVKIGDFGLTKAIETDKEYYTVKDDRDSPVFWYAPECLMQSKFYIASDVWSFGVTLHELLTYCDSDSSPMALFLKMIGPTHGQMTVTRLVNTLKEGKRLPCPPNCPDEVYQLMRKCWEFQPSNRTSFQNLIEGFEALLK
ASSAY EXPLANATION: Lance Ultra Kinase Assay, recombinant JAK1
ASSAY CONDITIONS: 5 mM ATP
MEASURED METRIC: IC50 (nM)

- MOLECULE: "CNCCOc1ccc(Nc2ncc(F)c(-c3c[nH]c4c(NC(=O)[C@@H](COC)N5CCN(C)CC5)cccc34)n2)cn1 [Example 20]"
  TEST RESULT: 0.65
- MOLECULE: "COC[C@H](C(=O)Nc1cccc2c(-c3nc(Nc4cnn(-c5cccc(CO)c5)c4)ncc3F)c[nH]c12)N1CCN(C)CC1 [Example 67]"
  TEST RESULT: 0.18
- MOLECULE: "COC[C@H](C(=O)Nc1cccc2c(-c3nc(Nc4ccc(NC(C)=O)nc4)ncc3F)c[nH]c12)N1CCN(C)CC1 [Example 48]"
  TEST RESULT: 0.27
- MOLECULE: "COC[C@H](C(=O)Nc1cccc2c(-c3nc(Nc4ccnc(CCC(=O)OC)c4)ncc3F)c[nH]c12)N1CCN(C)CC1 [Example 15]"
  TEST RESULT: 0.19
- MOLECULE: "COC[C@H](C(=O)Nc1cccc2c(-c3nc(Nc4cnc(CO)c(C)c4)ncc3F)c[nH]c12)N1CCN(C)CC1 [Example 3]"
  TEST RESULT: 0.19

P: COC[C@H](C(=O)Nc1cccc2c(-c3nc(Nc4ccnc(C(=O)OC)c4)ncc3F)c[nH]c12)N1CCN(C)CC1 [Example 4]
Q: COC[C@H](C(=O)Nc1cccc2c(-c3nc(Nc4cnn(C5CCOCC5)c4)ncc3F)c[nH]c12)N1CCN(C)CC1 [Example 18]
R: COC[C@H](C(=O)Nc1cccc2c(-c3nc(Nc4cccc(CCC(=O)OC)n4)ncc3F)c[nH]c12)N1CCN(C)CC1 [Example 55]
Query: Form: Sort by [IC50] Order [ ascending ] Labels, ranked as asked.
Response: Q, P, R

---

ASSAY EXPLANATION: Metabolic stability in rat hepatocytes
Assay type: in vitro ADME
ASSAY CONDITIONS: 1 μM compound, male rat hepatocytes
MEASURED METRIC: Rat Hepatocyte CLint (μL/min/10^6 cells)

Worked examples, 2 molecules total:
- MOLECULE: "COC[C@H](C(=O)Nc1cccc2c(-c3nc(Nc4ccc5c(C)n[nH]c5c4)ncc3F)c[nH]c12)N1CCN(C)CC1"
  Rat Hepatocyte CLint / μL/min/10^6 cells: 4.5
- MOLECULE: "COC[C@H](C(=O)Nc1cccc2c(-c3nc(Nc4cnc(CCO)c(OC)c4)ncc3F)c[nH]c12)N1CCN(C)CC1"
  Rat Hepatocyte CLint / μL/min/10^6 cells: 12.7

a: COC[C@H](C(=O)Nc1cccc2c(-c3nc(Nc4cnn(-c5ccccc5CO)c4)ncc3F)c[nH]c12)N1CCN(C)CC1
b: COC[C@H](C(=O)Nc1cccc2c(-c3nc(Nc4cnn(C5CCOC5)c4)ncc3F)c[nH]c12)N1CCN(C)CC1 (single isomer, unassigned; isomer 1) [Example 30]
c: COC[C@H](C(=O)Nc1cccc2c(-c3nc(Nc4ccc(CO)nc4)ncc3F)c[nH]c12)N1CCN(C)CC1
d: COC[C@H](C(=O)Nc1cccc2c(-c3nc(Nc4ccc5c(c4)C(=O)NCC5)ncc3F)c[nH]c12)N1CCN(C)CC1
Query: Sequence the entries by Rat Hepatocyte CLint, beginning with the highest number. Labels, ranked as asked.
Response: c, a, b, d

---

ASSAY EXPLANATION: Metabolic stability in human liver microsome
Type: in vitro ADME
ASSAY CONDITIONS: human, pooled human liver microsomes, pH 7.4, 1 μM compound, 1 mg/mL microsomes, NADPH
MEASURED METRIC: microsomal CLint at 1 μM (µL/min/mg)

Worked examples, 5 molecules total:
- MOLECULE: "COC[C@H](C(=O)Nc1cccc2c(-c3nc(Nc4ccc5nc[nH]c5c4)ncc3F)c[nH]c12)N1CCN(C)CC1 [Example 45]"
  MEASURED METRIC: "microsomal CLint at 1 μM"
  UNIT OF MEASURE: "µL/min/mg"
  TEST RESULT: 45.2
- MOLECULE: "COC[C@H](C(=O)Nc1cccc2c(-c3nc(Nc4ccc(NC(C)=O)nc4)ncc3F)c[nH]c12)N1CCN(C)CC1 [Example 48]"
  MEASURED METRIC: "microsomal CLint at 1 μM"
  UNIT OF MEASURE: "µL/min/mg"
  TEST RESULT: 69.1
- MOLECULE: "COC[C@H](C(=O)Nc1cccc2c(-c3nc(Nc4ccc(-c5cnco5)nc4)ncc3F)c[nH]c12)N1CCN(C)CC1 [Example 40]"
  MEASURED METRIC: "microsomal CLint at 1 μM"
  UNIT OF MEASURE: "µL/min/mg"
  TEST RESULT: 50.4
- MOLECULE: "COC[C@H](C(=O)Nc1cccc2c(-c3nc(Nc4ccc(CO)cn4)ncc3F)c[nH]c12)N1CCN(C)CC1 [Example 59]"
  MEASURED METRIC: "microsomal CLint at 1 μM"
  UNIT OF MEASURE: "µL/min/mg"
  TEST RESULT: 10.7
- MOLECULE: "COC[C@H](C(=O)Nc1cccc2c(-c3nc(Nc4ccnc(C(=O)OC)c4)ncc3F)c[nH]c12)N1CCN(C)CC1 [Example 4]"
  MEASURED METRIC: "microsomal CLint at 1 μM"
  UNIT OF MEASURE: "µL/min/mg"
  TEST RESULT: 14.4

P: COC[C@H](C(=O)Nc1cccc2c(-c3nc(Nc4ccnc(CO)c4)ncc3F)c[nH]c12)N1CCN(C)CC1 [Example 2]
Q: COC[C@H](C(=O)Nc1cccc2c(-c3nc(Nc4ccc5cn[nH]c5c4)ncc3F)c[nH]c12)N1CCN(C)CC1 [Example 13]
R: COC[C@H](C(=O)Nc1cccc2c(-c3nc(Nc4cnn(-c5cccc(CO)c5)c4)ncc3F)c[nH]c12)N1CCN(C)CC1 [Example 67]
S: COC[C@H](C(=O)Nc1cccc2c(-c3nc(Nc4cnn(-c5ccccc5CO)c4)ncc3F)c[nH]c12)N1CCN(C)CC1 [Example 53]
T: COC[C@H](C(=O)Nc1cccc2c(-c3nc(Nc4ccc(OCCO)nc4)ncc3F)c[nH]c12)N1CCN(C)CC1 [Example 16]
Query: Form: Sort by [microsomal CLint at 1 μM] Order [ ascending ] Labels, ranked as asked.
Response: T, P, R, S, Q
(T: 3 µL/min/mg, P: 10.6 µL/min/mg, R: 19.5 µL/min/mg, S: 27.9 µL/min/mg, Q: 83.1 µL/min/mg)

A: COC[C@H](C(=O)Nc1cccc2c(-c3nc(Nc4ccc5c(c4)NC(=O)C5)ncc3F)c[nH]c12)N1CCN(C)CC1 [Example 37]
B: COC[C@H](C(=O)Nc1cccc2c(-c3nc(Nc4cnc(CCO)c(OC)c4)ncc3F)c[nH]c12)N1CCN(C)CC1 [Example 66]
C: COC[C@H](C(=O)Nc1cccc2c(-c3nc(Nc4ccc(NC(=O)CO)nc4)ncc3F)c[nH]c12)N1CCN(C)CC1 [Example 8]
Query: Sequence the entries by microsomal CLint at 1 μM, beginning with the highest number. Labels, ranked as asked.
Response: B, A, C
(B: 25 µL/min/mg, A: 11.7 µL/min/mg, C: 7.2 µL/min/mg)

P: CCC(=O)Nc1ccc(Nc2ncc(F)c(-c3c[nH]c4c(NC(=O)[C@@H](COC)N5CCN(C)CC5)cccc34)n2)cn1 [Example 5]
Q: COC[C@H](C(=O)Nc1cccc2c(-c3nc(Nc4ccc(CO)nc4)ncc3F)c[nH]c12)N1CCN(C)CC1 [Example 1]
R: COC[C@H](C(=O)Nc1cccc2c(-c3nc(Nc4ccc5c(c4)C(=O)NCC5)ncc3F)c[nH]c12)N1CCN(C)CC1 [Example 35]
S: COC[C@H](C(=O)Nc1cccc2c(-c3nc(Nc4ccc5c(c4)C(=O)OCC5)ncc3F)c[nH]c12)N1CCN(C)CC1 [Example 64]
Query: Sequence the entries by microsomal CLint at 1 μM, beginning with the highest number. Labels, ranked as asked.
Response: P, S, R, Q
(P: 73.9 µL/min/mg, S: 21.9 µL/min/mg, R: 9.2 µL/min/mg, Q: 4.9 µL/min/mg)
